# System: back of hairless mice (HR-1), 10 mass % oleic acid applied
# Experiment summary: Inhibiting effect against rough skin induced by oleic acid application (transepidermal water loss)
# Assay type: in vivo
# Parameters: unit not given here
# Measurement parameters: sample 3 mass %, three days, average of four animals; rough skin worse as value increases; control 12.0
Values of ΔTEWL value strictly less than 8 map to Satisfied, and values of at least 8 map to Not satisfied.

Below 8 on ΔTEWL value? Entry `O=C(N[C@@H](CO)C(=O)O)OCc1ccccc1`
Satisfied

Below 8 on ΔTEWL value? Entry CC(NC1CCCCC1)C(=O)O (racemic)
Satisfied

Below 8 on ΔTEWL value? Entry `CN[C@@H](C)C(=O)O`
Not satisfied

Below 8 on ΔTEWL value? Entry `CCN[C@@H](CO)C(=O)O`
Satisfied

Below 8 on ΔTEWL value? Entry `O=C(O)[C@H](CO)NC1CCCCC1`
Satisfied

Below 8 on ΔTEWL value? Entry `CCN[C@@H](C)C(=O)O`
Not satisfied

Below 8 on ΔTEWL value? Entry O=C(O)C(CO)NS(=O)(=O)c1ccccc1 (racemic)
Satisfied

Below 8 on ΔTEWL value? Entry `O=C(O)CNC1CCCCC1`
Satisfied

====

# Tested on: back of a hairless mouse (HR-1), 10 mass % oleic acid applied
# Experiment summary: Parakeratosis-inhibiting effect tests: oleic acid applied to hairless mouse back, macroscopic rough skin evaluation and parakeratosis value
# Format: in vivo
# Measurement parameters: summary of Table 1, concentrations as in Table 1
Quantity: rough skin preventing effect, based on stratum corneum peeling and redness

The cases that follow already have their rough skin preventing effect, based on stratum corneum peeling and redness on record.
Fill in the blank: the reported rough skin preventing effect, based on stratum corneum peeling and redness of O=C(NC(CO)C(=O)O)OCc1ccccc1 (racemic) is ____.
seen

Fill in the blank: the reported rough skin preventing effect, based on stratum corneum peeling and redness of O=C(O)C(CO)NC1CCCCC1 (racemic) is ____.
seen

Fill in the blank: the reported rough skin preventing effect, based on stratum corneum peeling and redness of `CN[C@H](CO)C(=O)O` is ____.
seen

Fill in the blank: the reported rough skin preventing effect, based on stratum corneum peeling and redness of `CN[C@@H](C)C(=O)O` is ____.
seen

Fill in the blank: the reported rough skin preventing effect, based on stratum corneum peeling and redness of CCNC(CO)C(=O)O (racemic) is ____.
seen

Fill in the blank: the reported rough skin preventing effect, based on stratum corneum peeling and redness of `C[C@H](NC(=O)OCc1ccccc1)C(=O)O` is ____.
seen

Fill in the blank: the reported rough skin preventing effect, based on stratum corneum peeling and redness of `CCN[C@@H](C)C(=O)O` is ____.
seen

Fill in the blank: the reported rough skin preventing effect, based on stratum corneum peeling and redness of CC(NC(=O)OCc1ccccc1)C(=O)O (racemic) is ____.
seen

Further cases:
Fill in the blank: the reported rough skin preventing effect, based on stratum corneum peeling and redness of `CN[C@H](C)C(=O)O` is ____.
seen

Fill in the blank: the reported rough skin preventing effect, based on stratum corneum peeling and redness of `O=C(O)[C@H](CO)NC1CCCCC1` is ____.
seen

Fill in the blank: the reported rough skin preventing effect, based on stratum corneum peeling and redness of `O=C(N[C@@H](CO)C(=O)O)OCc1ccccc1` is ____.
seen

====

# Tested on: back of hairless mice (HR-1), 10 mass % oleic acid applied
# Experiment summary: Inhibiting effect against rough skin induced by oleic acid application (transepidermal water loss)
# Format: in vivo
# Set-up: unit not given here
# Measurement parameters: sample 3 mass %, three days, average of four animals; rough skin worse as value increases; control 12.0
Please respond with reported ΔTEWL value for every item in the list.
Form field (numeric): enter value without unit.

Fill in the blank: the reported ΔTEWL value of `C[C@@H](NC1CCCCC1)C(=O)O` is ____.
6.9

Fill in the blank: the reported ΔTEWL value of `O=C(O)[C@H](CO)NS(=O)(=O)c1ccccc1` is ____.
6.8

Fill in the blank: the reported ΔTEWL value of `C[C@H](NC1CCCCC1)C(=O)O` is ____.
7.1

Fill in the blank: the reported ΔTEWL value of `O=C(N[C@H](CO)C(=O)O)OCc1ccccc1` is ____.
6.8

Fill in the blank: the reported ΔTEWL value of `C[C@H](NC(=O)OCc1ccccc1)C(=O)O` is ____.
6.9

Fill in the blank: the reported ΔTEWL value of `O=C(O)CNS(=O)(=O)c1ccccc1` is ____.
6.9

Fill in the blank: the reported ΔTEWL value of `C[C@@H](NC(=O)OCc1ccccc1)C(=O)O` is ____.
7.1

Fill in the blank: the reported ΔTEWL value of `O=C(O)[C@@H](CO)NC1CCCCC1` is ____.
6.8
